- Tested on: A498 renal
- assay.remarks: NCI tumour cell line growth inhibition, 48 h; in the data active = GI50 below about 0.43 µM; inactive = the rest
A correct response names exactly one class from active, inactive

Task: Recorded test call requested for C#C[C@]1(O)CC[C@H]2[C@@H]3CC=C4c5sc(N=C(N)N)nc5CC[C@]4(C)[C@H]3CC[C@@]21C
Output: active

Task: Recorded test call requested for Cn1c(=O)cc2c3c(c(NCCCO)ccc31)C(=O)c1ccccc1-2
Output: inactive

Task: Recorded test call requested for CCN(CC)CCOc1ccc(/C=C2\CC3C4CCC5=CC(=O)CC[C@]5(C)C4CC[C@]3(C)C2=O)cc1OC (some centres undefined)
Output: inactive

Task: Recorded test call requested for COc1ccc2c(c1)c(C1(c3cn(C)c4ccc(OC)cc34)C(=O)Nc3ccc(F)cc31)cn2C
Output: inactive

Task: Recorded test call requested for O=C1c2ccccc2C(=O)N1c1ccc(S(=O)(=O)Nc2ncccn2)cc1
Output: inactive

Task: Recorded test call requested for COc1ccc2[nH]cc(-c3nc(-c4cn(C)c5ccncc45)cs3)c2c1
Output: inactive

Task: Recorded test call requested for CC(=O)OC1COC(S[As](C)C)C(OC(C)=O)C1OC(C)=O (centres undefined)
Output: active

Task: Recorded test call requested for COC(CCP(=O)(c1ccccc1)c1ccccc1)(C(=O)c1ccccc1)c1ccccc1 (centres undefined)
Output: inactive

Task: Recorded test call requested for CCCCCCCCCCCCCCCc1cc(O)ccc1N
Output: inactive

Task: Recorded test call requested for CC(ONC(=O)c1cc(C(F)(F)F)cc(C(F)(F)F)c1)C(=O)Nc1ccc(Cl)cc1 (centres undefined)
Output: inactive

Task: Recorded test call requested for COCCOC(=O)C1=C(C)NC2=C(C(=O)CC(c3ccccc3OC)C2)C1c1cccc(O)c1 (centres undefined)
Output: inactive

Task: Recorded test call requested for O=C1/C(=C/c2ccccc2Cl)N=C(c2ccccc2)N1Cc1ccco1
Output: inactive

Task: Recorded test call requested for CCOC(=O)CC1(O)C=CC(=O)C=C1
Output: inactive

Task: Recorded test call requested for O=C(Nc1cc(C(F)(F)F)ccc1F)Nc1n[nH]c2ccccc12
Output: inactive

----------
- System: HCC-2998 colon
- assay.remarks: NCI tumour cell line growth inhibition, 48 h
metric: TGI

Task: Lab request: please report TGI under test system HCC-2998 colon for CC[C@@]1(O)C(=O)OCc2c1cc1n(c2=O)Cc2c-1nc1ccccc1c2CC[Si](C)(C)C
Output: 0.713 µM

Task: Lab request: please report TGI under test system HCC-2998 colon for COc1cc(-c2[nH]ccc2Cl)oc1C1=C2N=C3C=C2C(C(C)C)C1CCCCCCCC3 (configuration not stated)
Output: 1.77 µM

Task: Lab request: please report TGI under test system HCC-2998 colon for CCOC(=O)/N=C(\N)SCc1ccccc1
Output: > 100 µM

Task: Lab request: please report TGI under test system HCC-2998 colon for Cc1ccccc1C(=O)Oc1ccc(Oc2ccccc2)cc1
Output: > 100 µM

Task: Lab request: please report TGI under test system HCC-2998 colon for C(=C\c1csnn1)/c1cccnc1
Output: > 100 µM

Task: Lab request: please report TGI under test system HCC-2998 colon for COc1cc(N=NN(C)C)c(C(C)c2c3cc(OC)c(OC)cc3cc[n+]2C)cc1OC (configuration not stated)
Output: > 100 µM

Task: Lab request: please report TGI under test system HCC-2998 colon for C1COC(NC(C2CC2)C2CC2)=N1
Output: > 100 µM

Task: Lab request: please report TGI under test system HCC-2998 colon for O=C(COc1cccc(/C=C2\COc3ccccc3C2=O)c1)Nc1nccs1
Output: 3.48 µM

Task: Lab request: please report TGI under test system HCC-2998 colon for c1ccc(C2SCC3=Nc4ccccc4CN32)cc1 (configuration not stated)
Output: > 100 µM

Task: Lab request: please report TGI under test system HCC-2998 colon for CC(=O)N1CC2Nc3ccccc3C2CC1CO (configuration not stated)
Output: > 100 µM

Task: Lab request: please report TGI under test system HCC-2998 colon for CC(C)(C)c1ccc(CN2CCN(C(c3ccccc3)c3ccc(Cl)cc3)CC2)cc1 (configuration not stated)
Output: 89.4 µM

Task: Lab request: please report TGI under test system HCC-2998 colon for CCOP(=O)(Nc1ccc(-c2ccccc2)cc1)OCC
Output: > 100 µM

FYI, the data here is from PubChem BioAssay (NCI).
